Test system: Escherichia coli TOP10;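 further: peptides expressed intracellularly from a pBAD plasmid library in pooled LB shake-flask culture, induced with 0.3% L-arabinose, DNA abundance read by NGS, three biological replicates, DESeq2 with apeglm shrinkage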
Experiment: shrunken log2 fold change of peptide-encoding DNA abundance (4.5 h post-induction vs induction); higher = less antimicrobial activity (less host growth inhibition)
Details: time post-induction: 4.5 h; library: site-saturation at positions 5, 18, 19, 20
The sequences listed here are annotated with their shrunken log2 fold change.

Residues: RRIRNRPPRLPRPRPRPCTNPRP
shrunken log2 fold change: 0.00408
--
Residues: RRIRRRPPRLPRPRPRPTVTPRP
shrunken log2 fold change: 0.144
--
Residues: RRIRMRPPRLPRPRPRPEYTPRP
shrunken log2 fold change: -0.0269
--
Residues: RRIRERPPRLPRPRPRPWIFPRP
shrunken log2 fold change: -0.101
--
Residues: RRIRWRPPRLPRPRPRPDCNPRP
shrunken log2 fold change: -0.0173
--
Residues: RRIRARPPRLPRPRPRPEMSPRP
shrunken log2 fold change: 0.116
--
Residues: RRIRWRPPRLPRPRPRPNYSPRP
shrunken log2 fold change: -0.15
--
Residues: RRIRCRPPRLPRPRPRPSDGPRP
shrunken log2 fold change: -0.0084
--
Residues: RRIRLRPPRLPRPRPRPRHAPRP
shrunken log2 fold change: 0.537
--
Residues: RRIRRRPPRLPRPRPRPVHSPRP
shrunken log2 fold change: -0.0233
--
Residues: RRIRPRPPRLPRPRPRPCSAPRP
shrunken log2 fold change: 0.199
--
Residues: RRIRFRPPRLPRPRPRPYWKPRP
shrunken log2 fold change: -0.0922
--
Residues: RRIRERPPRLPRPRPRPSPTPRP
shrunken log2 fold change: 0.0865
--
Residues: RRIRVRPPRLPRPRPRPDTSPRP
shrunken log2 fold change: -0.124
--
Residues: RRIRERPPRLPRPRPRPMIVPRP
shrunken log2 fold change: -0.477
